Test system: K4 kissing-loop RNA reporter;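 further: bound reporter read as fluorescence of individual clusters on recovered sequencing chips by microscopy, with normalized cluster intensities fitted with a binding model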
protocol summary: apparent KD of K4 kissing-loop reporter; higher = weaker reporter binding
run parameters: Eterna round: R107; input ligand: tryptophan 2.4 mM
measurement kind: apparent KD of K4 kissing-loop reporter (nM)
Response body: numeric value in nM, unit text excluded.

Lookup: For the sequence UGAUACCAGACGGCCGCCACUCCCGCAGGUCAAAGACCUGCGAAGAAGGUUCUUUAGUGAUGUUGGAGGACCGGGUCUGGUAUCU [FiskerMod 21 - Jieux - Exclusion - Tryptophan B] , give its reported apparent KD of K4 kissing-loop reporter.
Found: 523

Lookup: For the sequence "AGGUCACGAGGAAGGAGCGCCCUGACAGGUUGCUGCCGUGGGCAGUGAUGUUGCUCAGUCCGGCAGGUAGGUCGCCUCGUGACCU" , give its reported apparent KD of K4 kissing-loop reporter.
Found: 148

Lookup: For the sequence GGUGACAACCAGGAGUGAUGUAUAGAAUAGCGAGGACCGGUACGGCCGCCACUCGUGAAGAGAAAGGAGUGAUGUUCCGUAAUGG [Kazoo C3] , give its reported apparent KD of K4 kissing-loop reporter.
Found: 62.8

Lookup: For the sequence CCAUCGCUAUUCGAUACCAGUCAUAAAAUCUUUGGUUAAAUAAAGGAGUGAUGUUCCAAAGACCCUUGGCAGCGAAUAGUGAUGG [Theophylline B K4 6] , give its reported apparent KD of K4 kissing-loop reporter.
Found: 780

Lookup: For the sequence UAACGCCACUAAGAUACCAGACAUACAGAUCGGAUCUCCUAAAGAGAGUGAUGUUCUCUAGUCCCUUGGCAGCUUCUGGACUCCC [theeternabot_sameState_KL_Theo_B_9] , give its reported apparent KD of K4 kissing-loop reporter.
Found: 291

Lookup: For the sequence GGCAGUGAUGUUGCCAGUGGCAGAUUGGAAGGAGCGUGGUGAGACACAGGUAGGUCGCUAAUUGAAGUUGCUGUCACUAGAAUGC [whbob_Ex_Arginine_A_2t132] , give its reported apparent KD of K4 kissing-loop reporter.
Found: 231

Lookup: For the sequence UGGCGAGUGAUGUUCGUUGUUGUAGUGUGUCGAGGACCGGUACGGCCGCCACUCGGGUUGGUUGUUGUUGUUGUUGUUGUUGUUG [First Shot] , give its reported apparent KD of K4 kissing-loop reporter.
Found: 101

Lookup: For the sequence GAGCCAGAAGUUGCUGCGGGUUUCAGAGAUACCAGCCGUAUUGUAGGCCCUUGGCAGCUCGAGUGAUGUUCGAGCCGCUUCUAGC [Inma] , give its reported apparent KD of K4 kissing-loop reporter.
Found: 114

Lookup: For the sequence "UGUGUUUACCUGACUCAGUGAUGUUGAGAAGGAGCGUGCGAAGGCACAGGUAGGUCGCUCAACCUAAAUUCAGGUGAGCACUAAA" , give its reported apparent KD of K4 kissing-loop reporter.
Found: 250

Lookup: For the sequence UGUCAUUGGUCGGCCGCCACUAGGACCGGGUUUUACCUAGUGAUGUUAGUAUAAACGGCCGCCACUAGGACCGGGACCGAUGACU [KL-SSTryp-B24 #DoubleAptamer] , give its reported apparent KD of K4 kissing-loop reporter.
Found: 122

Lookup: For the sequence UAGUGAAUAGAAGGAUAUUGAUAUGAAAGAUGCAGUGAUGUUGCCCGUAGCAGUCAGUAAUACGUGCAAGAAGGUCUGUGCGCGA [theeternabot_exclusion_KL_FMN_B_3] , give its reported apparent KD of K4 kissing-loop reporter.
Found: 62.4

Lookup: For the sequence AGGCGCUUAAGUCAGUGAUGUUGAUUAUAUCGAGGACCGGUACGGCCGCCACUCGGCUUUCAUCCGCCAUCGUAGUCCUAAAACC [theeternabot_sameState_KL_Trp_A_25] , give its reported apparent KD of K4 kissing-loop reporter.
Found: 549

Lookup: For the sequence UGAUAAAGCAGUGAUGUUGCAAGAAAUGAUACCAGUUAAGAAGAGAACCCUUGGCAGCAUAAAGUGCGCUCUAAUGAGUGUGCUU [whbob_SS_Theo_A_w50] , give its reported apparent KD of K4 kissing-loop reporter.
Found: 87.6

Lookup: For the sequence AGCGGCCAGUCGGCCGCCACUCCAGGCAGUGAUGUUGCUAAGUUUCUACUAGAGUGAUGUUCUAAGAGGACCGGGACUGACGUAU [Exclusion Tryptophan B Gf 8] , give its reported apparent KD of K4 kissing-loop reporter.
Found: 145

Lookup: For the sequence UUUAUAAGGUCGGCCGCCACUGGAUUUAUGUUUGUUUCGUCUGGAUCAAAGUGAUGUUUUGAGUCCAGGACCGGGACAUUUGUUA [whbob_Ex_Tryp_B_w39] , give its reported apparent KD of K4 kissing-loop reporter.
Found: 90.5

Lookup: For the sequence AAUUUAUUAUCUGAUACCAGACUUUUUCUUGUUUAUAAGUCAAGUGAUGUUUGACUUUUAGUCCCUUGGCAGCAGUAUUUUUUAA [JR_Nu_SSTheophyB_Sub026] , give its reported apparent KD of K4 kissing-loop reporter.
Found: 114

Lookup: For the sequence AUGUAUGAAUUAGGAUAUCGUUAGCCUUGCAUAUAUAUGAUAAAUGGAUAUGUCGUAGUGAUGUUACGAGAAGGAGUGUGGAGUA [KL-XFMN-B5] , give its reported apparent KD of K4 kissing-loop reporter.
Found: 30.2

Lookup: For the sequence AUUCGCUCCACUGAUACCAGUCAUCGAGCAAGAUGCUAAGCCAGUGAUGUUGGCAUGAAUGACCCUUGGCAGCAGUACACUAAGG [Theo B SS t7] , give its reported apparent KD of K4 kissing-loop reporter.
Found: 60

Lookup: For the sequence CUCGUGGGUUUGGGAGGGCUUGUGGGAAGAUAGGAUAUCUAGGGAGGGAGAAGGAUCUAUAGAAUAUAGUGAUGUUAUAUAUGGG [SSFMNA.aA] , give its reported apparent KD of K4 kissing-loop reporter.
Found: 106

Lookup: For the sequence CGGAUGUAGUGAUGUUAUAUUAGAUGUAGACGAGGACCGGUACGGCCGCCACUCGAAACGGCUGCUAGCGCGUUGCGAGGUGUGC [ExTryptoA.Ck] , give its reported apparent KD of K4 kissing-loop reporter.
Found: 456

Lookup: For the sequence UAAUAAUAAUGAUAAUAAUAAAGUGGUGGACGAGGACCGGUACGGCCGCCACUCGAAAAUGCAGUGAUGUUGUAAUACAAAUAAU [Exclusion - Tryptophan A (Freestyle 1)] , give its reported apparent KD of K4 kissing-loop reporter.
Found: 86.6

Lookup: For the sequence UUUCUACCGGGAAGGAGCGUGAAUGAUAAUGGAUAUAGUGAUGUUAUAUAUACGAACGAAUCGCAGGUAGGUCGCCCGGAUCACU [SSArgB.U] , give its reported apparent KD of K4 kissing-loop reporter.
Found: 1090

Lookup: For the sequence AUUUAGACGAGUGAUGUUCGUGUUAUUACAGAGGAUAUGCGUAAUUGCAGAAGGCUGUAUUUAUAUAUGUUAUGUAGUUUUAAAA [whbob_Ex_FMNA__2th184] , give its reported apparent KD of K4 kissing-loop reporter.
Found: 74.1

Lookup: For the sequence "GCCGUAGAUGGAAGGAGCGUGUCAAAGUGAUGUUUUGAUUAACUCCCUACGGGAUAGAUGACACAGGUAGGUCGCCAUCUACGGC" , give its reported apparent KD of K4 kissing-loop reporter.
Found: 65.3
